- measurement_target: MC1-R (Mus musculus)
- Construct: B-16 mouse melanoma cells (containing MC1-R); endogenous in cells
- Sequence (Q01727 whole entry): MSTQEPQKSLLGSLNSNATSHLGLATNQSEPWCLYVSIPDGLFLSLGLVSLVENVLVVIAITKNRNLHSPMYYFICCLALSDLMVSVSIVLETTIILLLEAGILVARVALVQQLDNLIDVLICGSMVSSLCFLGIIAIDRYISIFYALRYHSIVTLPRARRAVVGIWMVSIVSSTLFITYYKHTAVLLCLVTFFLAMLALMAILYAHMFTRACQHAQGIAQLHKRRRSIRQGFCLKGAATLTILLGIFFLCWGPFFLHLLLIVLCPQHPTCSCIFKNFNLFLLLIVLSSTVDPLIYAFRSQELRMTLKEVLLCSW
- test_summary: Competitive inhibition assay using [I^125]-NDP-α-MSH, B-16 mouse melanoma cell membranes
- Format: binding
- test_context: 1 μM test compound; read-out: Inhibition at 1 μM (NDP-α-MSH) In Normal System, MC1-R
Non-standard residues stand in square brackets, D forms with d. Residues, ends and D or L forms follow the SMILES beside them. *: point of attachment. dPhe(4-Cl) = N[C@H](Cc1ccc(Cl)cc1)C(=O)O; Ahp = NCCCCCCC(=O)O; Bn = c1ccc(C*)cc1
Classify by measured inhibition at 1 µM: class 1 if it is equal to or exceeds 20%, class 0 if it is smaller.

Please review the entries below; each comes with its answer.
In: Reported inhibition at 1 µM reaches at least 20% for N=C(N)NCCC[C@H](NC(=O)[C@@H](Cc1ccc(Cl)cc1)NC(=O)[C@H](COCc1ccccc1)NC(=O)CCCCCCN)C(=O)N[C@@H](Cc1c[nH]c2ccccc12)C(=O)N[C@@H](CC(=O)O)C(N)=O [Example 13] (H-[Ahp]S(Bn)[dPhe(4-Cl)]RWD-NH2) ?
Out: class 1

In: Item `CC(=O)N[C@H](Cc1ccc(C)cc1C)C(=O)N1C[C@@H](C)N(CCc2ccc3ccccc3c2)C[C@@H]1CCCNC(=N)N` with inhibition at 1 µM of 20% or above?
Out: class 1

In: Please indicate if the recorded inhibition at 1 µM for `CC(C)C[C@@H]1CN(C(=O)[C@H](N)Cc2ccc(Cl)cc2Cl)[C@@H](CCCNC(=N)N)CN1CCc1ccc2ccccc2c1` meets or exceeds 20%.
Out: class 1

Others:
In: Could you tell me if the measured inhibition at 1 µM of `C[C@@H]1CN(C(=O)[C@H](N)Cc2ccc3ccccc3c2)[C@@H](CCCNC(=N)N)CN1C(=O)CCCc1c[nH]c2ccccc12` reaches 20% or more?
Out: class 0

In: Confirm if inhibition at 1 µM reported for the compound N=C(N)NCCC[C@H](NC(=O)[C@@H](Cc1ccc(Cl)cc1)NC(=O)[C@H](COCc1ccccc1)NC(=O)CCCCCCN)C(=O)N[C@@H](Cc1c[nH]c2ccccc12)C(=O)N[C@@H](CC(=O)O)C(=O)N[C@@H](Cc1ccccc1)C(N)=O [Example 14] (H-[Ahp]S(Bn)[dPhe(4-Cl)]RWDF-NH2) is 20% or above.
Out: class 1

In: I'd appreciate it if you could say whether N=C(N)NCCC[C@H](NC(=O)[C@@H](Cc1ccc(Cl)cc1)NC(=O)[C@H](COCc1ccccc1)NC(=O)CCCCCCN)C(=O)N[C@@H](Cc1c[nH]c2ccccc12)C(N)=O [Example 1] (H-[Ahp]S(Bn)[dPhe(4-Cl)]RW-NH2) has inhibition at 1 µM at least equal to 20%.
Out: class 1

In: API: above_or_equal(metric=inhibition at 1 µM, cutoff=20%) for item `Cc1cc(Cl)ccc1C[C@@H](N)C(=O)N1C[C@@H](C)N(C(=O)Cc2ccc3ccccc3c2)C[C@@H]1CCCNC(=N)N`
Out: class 0

In: Tell me whether inhibition at 1 µM is at least 20% here: `NCCCC[C@H]1C(=O)N(CCc2ccc3ccccc3c2)CCN1C(=O)[C@@H](Cc1ccc(Cl)cc1Cl)NC(=O)[C@@H]1CC[C@H](c2ccccc2)N1`
Out: class 0

In: Entry `CCCC[C@H](NC(C)=O)C(=O)N[C@H]1CC(=O)NCCCC[C@@H](C(=O)N(C)C)NC(=O)[C@H](Cc2cccc3ccccc23)NC(=O)[C@H](CCCNC(=N)N)NC(=O)[C@@H](Cc2ccccc2)NC(=O)[C@H](Cc2c[nH]cn2)NC1=O` : is its inhibition at 1 µM no less than 20%?
Out: class 1
